# Tested on: P388 leukemia ip, CD2F1 mice, survival T/C
# assayMethodText: NCI In Vivo Anticancer Drug Screen. Data for tumor model P388 Leukemia (intraperitoneal) in CD2F1 (CDF1) mice
# measurementParameters: endpoint: median survival time; dose: 50.0 mg/kg/injection; schedule: Q01DX009 (ip); vehicle: saline with Tween-80; higher = longer survival
Inconclusive results and toxic doses are left out.
quantityMeasured: T/C

Query: Any idea what T/C was measured for COC(=O)CCCC1=NC2=CC=CC3=NC(C)=NC(=N1)N23 ?
Reply: 98 % of control

Query: Any idea what T/C was measured for O=[N+]([O-])c1ccc(NCc2ccccc2)nc1 ?
Reply: 107 % of control

Query: Any idea what T/C was measured for N#CC(CN1CCOCC1)CN1CCOCC1 ?
Reply: 95 % of control

Query: Any idea what T/C was measured for CN(C=O)c1cc2c3c(c1)CCCN3CCC2 ?
Reply: 109 % of control

Query: Any idea what T/C was measured for Cc1cc(C)c2nccc(/C=C/c3ccc(N(C)C)cc3)c2c1 ?
Reply: 110 % of control

Query: Any idea what T/C was measured for CCOC1OCN(CCc2ccccc2)CC1(C)C (stereo unspecified) ?
Reply: 108 % of control

Query: Any idea what T/C was measured for CCOC(=O)C1(C(=O)OCC)N=C(c2ccccc2)C=C1c1ccccc1 ?
Reply: 100 % of control

Query: Any idea what T/C was measured for CN(C)/C=N/c1c(C#N)c(-c2ccccc2)c(-c2ccccc2)n1-c1ccccc1 ?
Reply: 97 % of control

Query: Any idea what T/C was measured for COc1cc(Cl)ccc1NC(=O)Oc1cc(C)c(I)cc1C ?
Reply: 104 % of control

Query: Any idea what T/C was measured for O=c1[nH]c(=O)n([C@H]2CCCO2)cc1F ?
Reply: 104 % of control

Query: Any idea what T/C was measured for O=C1CCC(N2C(=O)c3ccccc3C2=O)C(=O)N1 (stereo unspecified) ?
Reply: 100 % of control

Query: Any idea what T/C was measured for CCOC(=O)c1csc(C2OC(COC(=O)c3ccccc3)C(OC(=O)c3ccccc3)C2OC(=O)c2ccccc2)n1 (stereo unspecified) ?
Reply: 96 % of control

Query: Any idea what T/C was measured for CCCCCCC(=O)/C=C/c1c(OC)cc(OC)cc1OC ?
Reply: 101 % of control

Query: Any idea what T/C was measured for CCOC(=O)Nc1cc(NC(c2ccccc2)c2ccccc2)c2[nH]cnc2n1 ?
Reply: 88 % of control

Query: Any idea what T/C was measured for S=c1[nH]c(Cl)c(Cl)cc1Cl ?
Reply: 98 % of control

Query: Any idea what T/C was measured for CC(=O)CC(=O)CCCCCCCCCCCC(=O)O ?
Reply: 94 % of control

Query: Any idea what T/C was measured for O=C1C(=O)c2ccccc2C(O)=C1CC=C(Br)Br ?
Reply: 100 % of control

Query: Any idea what T/C was measured for O=Cc1ccc(C(Cl)(Cl)Cl)nc1 ?
Reply: 105 % of control

Query: Any idea what T/C was measured for C[n+]1noc([O-])c1-c1ccccc1 ?
Reply: 102 % of control

Query: Any idea what T/C was measured for N=C(N)SCN1C(=O)c2ccccc2C1=O ?
Reply: 122 % of control

Query: Any idea what T/C was measured for CC(=N\O)/C(=N\O)C(=O)c1ccccc1 ?
Reply: 95 % of control

Query: Any idea what T/C was measured for COc1cc2c(cc1OC)C1Cc3ccc4cc(OC)c(OC)cc4c3CN1CC2 (stereo unspecified) ?
Reply: 100 % of control

Query: Any idea what T/C was measured for O=C(O)C1=C(/C=C/Cl)CC1 ?
Reply: 102 % of control

Query: Any idea what T/C was measured for NNC(=O)c1ccc(Cl)cc1 ?
Reply: 96 % of control

Query: Any idea what T/C was measured for CCN(CC)[P+](C1=C(Cl)C(=O)C(Cl)=C(Cl)C1=O)(N(CC)CC)N(CC)CC ?
Reply: 103 % of control

Query: Any idea what T/C was measured for CCOc1ccc(Nc2cc([N+](=O)[O-])ccc2C(=O)O)cc1 ?
Reply: 91 % of control

Query: Any idea what T/C was measured for CC1(C)COC(Cc2ccccc2)=N1 ?
Reply: 100 % of control

Query: Any idea what T/C was measured for COC(=O)CC(=O)C(C)SC (stereo unspecified) ?
Reply: 109 % of control

Query: Any idea what T/C was measured for O=C1CCC(=O)N2c3ccccc3-c3ccccc3N12 ?
Reply: 95 % of control

Query: Any idea what T/C was measured for O=C1CCSC(=S)N1c1ccc(Cl)c([N+](=O)[O-])c1 ?
Reply: 88 % of control

Query: Any idea what T/C was measured for Clc1cc(Cl)c(C[N+]23CN4CN(CN(C4)C2)C3)cc1Cl ?
Reply: 122 % of control

Query: Any idea what T/C was measured for CC1(CO)C2CCC(CC2)C1CO (stereo unspecified) ?
Reply: 109 % of control

Query: Any idea what T/C was measured for CCN(CC)CCOc1ccc(/C(=C(\Cl)c2ccccc2)c2ccccc2)cc1 ?
Reply: 104 % of control

Query: Any idea what T/C was measured for O=C(OC(c1ccccc1)c1ccccc1)c1ccc([N+](=O)[O-])cc1 ?
Reply: 101 % of control

Query: Any idea what T/C was measured for CCCCOC(=O)CC(O)C(=O)OCCCC (stereo unspecified) ?
Reply: 109 % of control

Query: Any idea what T/C was measured for COc1ccc(C(=O)c2ccccc2)cc1OC ?
Reply: 100 % of control

Query: Any idea what T/C was measured for O=S1(=O)C(c2ccccc2)=C(O)c2cc3ccccc3nc21 ?
Reply: 107 % of control

Query: Any idea what T/C was measured for O=C(O)C(Cc1ccccc1F)NC(=O)C(F)(F)F (stereo unspecified) ?
Reply: 92 % of control

Query: Any idea what T/C was measured for CCCCCCCCCCC(N)P(=O)(O)O (stereo unspecified) ?
Reply: 100 % of control

Query: Any idea what T/C was measured for CCOC(=O)c1ccc(NC(=NC(C)(C)C)C(C)C)cc1 ?
Reply: 96 % of control

Query: Any idea what T/C was measured for COc1ccc(-c2coc3cc(OC4OC(COC5OCC(O)C(O)C5O)C(O)C(O)C4O)cc(O)c3c2=O)cc1 (stereo unspecified) ?
Reply: 98 % of control

====

Can you tell me T/C for the items I'm about to list?
# Test system: P388 leukemia ip, CD2F1 mice, survival T/C
# assayMethodText: NCI In Vivo Anticancer Drug Screen. Data for tumor model P388 Leukemia (intraperitoneal) in CD2F1 (CDF1) mice
# measurementParameters: endpoint: median survival time; dose: 25.0 mg/kg/injection; schedule: Q01DX009 (ip); vehicle: saline; higher = longer survival
Toxic doses and inconclusive results are not listed.

Query: GET /values?readout=T/C&system=P388 leukemia ip, CD2F1 mice, survival T/C&item= CC1=NC2=NC(CCCC(=O)N3CCCCC3)=NC3=CC=CC(=N1)N32
Reply: 104 % of control

Query: GET /values?readout=T/C&system=P388 leukemia ip, CD2F1 mice, survival T/C&item= O=C1N(CC2CO2)CCN1CC1CO1 (stereo not given)
Reply: 120 % of control

Query: GET /values?readout=T/C&system=P388 leukemia ip, CD2F1 mice, survival T/C&item= CCCCCCCCCCCCCCCC[N+](C)(C)CCNC(=O)C1CSC(C)(C)N1C=O (stereo not given)
Reply: 97 % of control

Query: GET /values?readout=T/C&system=P388 leukemia ip, CD2F1 mice, survival T/C&item= COC(=O)c1cc2c(s1)CCC/C(Cl)=C(/C=O)C2
Reply: 97 % of control

Query: GET /values?readout=T/C&system=P388 leukemia ip, CD2F1 mice, survival T/C&item= CN=C(NC(C)C)c1ccccc1
Reply: 88 % of control

====

# System: P388 leukemia ip, CD2F1 mice, survival T/C
# assayMethodText: NCI In Vivo Anticancer Drug Screen. Data for tumor model P388 Leukemia (intraperitoneal) in CD2F1 (CDF1) mice
# measurementParameters: endpoint: median survival time; dose: 120.0 mg/kg/injection; schedule: Q01DX005 (ip); vehicle: saline with Tween-80; higher = longer survival
Inconclusive results and toxic doses are left out.
Can you tell me T/C for the items I'm about to list?

Query: Any idea what T/C was measured for CCCCC1(C(O)CC)Sc2ccccc2N1C (centres undefined) ?
Reply: 101 % of control

Query: Any idea what T/C was measured for COc1ccc(/C=C/C(=O)C(C)(C)CN(C)CCN(C)C)cc1 ?
Reply: 109 % of control

Query: Any idea what T/C was measured for CCc1cccc(C)c1NC(=O)C(=O)CC(=O)c1ccc(Cl)cc1Cl ?
Reply: 116 % of control

Query: Any idea what T/C was measured for Cc1ccc(NC(=O)NCCCCCCNC(=O)Nc2ccc(C)cc2)cc1 ?
Reply: 94 % of control

Query: Any idea what T/C was measured for COc1ccc(Cc2coc3cc(OC)cc(OC)c3c2=O)cc1 ?
Reply: 97 % of control

Query: Any idea what T/C was measured for O=C(CNC(=O)c1ccccc1)N/N=C/c1c(O)ccc2ccccc12 ?
Reply: 93 % of control

Query: Any idea what T/C was measured for O=C(N/N=C/c1ccccc1Cl)c1cccnc1 ?
Reply: 93 % of control

Query: Any idea what T/C was measured for COC1(C)O[C@@]2(C)c3ccccc3C(=O)[C@@]2(c2ccccc2)O1 (some centres undefined) ?
Reply: 97 % of control

Query: Any idea what T/C was measured for O=C(O)C1C2C=CC(C2)C1c1c2ccc(=O)c(O)c-2oc2c(O)c(O)ccc12 (centres undefined) ?
Reply: 101 % of control

Query: Any idea what T/C was measured for COc1ccc(C2CC(=O)NC2=O)cc1OC (centres undefined) ?
Reply: 92 % of control

Query: Any idea what T/C was measured for CCO/C(CC#N)=C(/C#N)C(=O)Nc1ccc(OC)cc1 ?
Reply: 93 % of control

Query: Any idea what T/C was measured for O/N=C(/Cc1nc2cc(Cl)c(Cl)cc2nc1C/C(=N/O)c1cccc2ccccc12)c1cccc2ccccc12 ?
Reply: 99 % of control

Query: Any idea what T/C was measured for N#CC(C(=O)C(=O)Nc1ccc(Cl)c(Cl)c1)c1c(Cl)cccc1Cl (centres undefined) ?
Reply: 97 % of control

Query: Any idea what T/C was measured for CC1(C)OC(=O)C2(O1)C(=O)C1CCCCC12C (centres undefined) ?
Reply: 95 % of control

Query: Any idea what T/C was measured for COc1ccc(NC(=O)CCCC(=O)CC(=O)c2ccc(Cl)cc2)c(OC)c1 ?
Reply: 103 % of control

Query: Any idea what T/C was measured for S=c1c(-c2ccccc2)cnc2sccn12 ?
Reply: 96 % of control

Query: Any idea what T/C was measured for Nc1[nH]c(=O)ncc1-c1ccccc1Cl ?
Reply: 104 % of control

Query: Any idea what T/C was measured for O=c1[nH]cnc2sc3c(c12)CCC3 ?
Reply: 88 % of control

Query: Any idea what T/C was measured for CC12C(=O)NC(c3ccncc3)(c3ccccc31)C1C(=O)N(c3ccccc3)C(=O)C12 (centres undefined) ?
Reply: 94 % of control

Query: Any idea what T/C was measured for COc1ccc(C2C3=C(CC(C)(C)CC3=O)Oc3cc4c(cc32)OCO4)cc1 (centres undefined) ?
Reply: 96 % of control

Query: Any idea what T/C was measured for O=c1[nH]cnc2cccc(Cl)c12 ?
Reply: 90 % of control

Query: Any idea what T/C was measured for CCOC(=O)C1=C(Nc2ccc(F)cc2)C(=O)N(C(C)(C)C)C1 ?
Reply: 106 % of control

Query: Any idea what T/C was measured for O=C(O)c1cccc2nc3cc4c(c(C(=O)O)c3nc12)OCO4 ?
Reply: 99 % of control

Query: Any idea what T/C was measured for C1=CN2C(c3ccccc3)=NON(c3ncccn3)C2N=C1 (centres undefined) ?
Reply: 91 % of control
